B1: glmS ribozyme (parent)
chain: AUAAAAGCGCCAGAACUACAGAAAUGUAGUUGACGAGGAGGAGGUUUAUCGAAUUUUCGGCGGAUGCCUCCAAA

Variants of: B1
ASSAY NAME: self-cleavage kobs at 640 uM GlcN6P; higher = faster cleavage; RNA array
CONDITION INFO: with glucosamine-6-phosphate
Variants at the floor of the assay were thinned out.
Please note: label 1 applies when self-cleavage kobs at 640 uM GlcN6P is 0.0002 s⁻¹ or greater, and label 0 applies otherwise.

Examples with answers:
> print(dat)
   variant.identifier  assigned.label
1           C67G U69C         label 1
2       G9A A14G G38U         label 0
3       A6G G32U C61A         label 0
4           U47C G66A         label 1
5           C11U G38C         label 0

// inclusive: self-cleavage kobs at 640 uM GlcN6P at least 0.0002 s⁻¹? input: C16G U46C
label 0

// inclusive: self-cleavage kobs at 640 uM GlcN6P at least 0.0002 s⁻¹? input: U31G G35C G51U
label 0

// inclusive: self-cleavage kobs at 640 uM GlcN6P at least 0.0002 s⁻¹? input: G32U U69C
label 0

// inclusive: self-cleavage kobs at 640 uM GlcN6P at least 0.0002 s⁻¹? input: A53U G66C
label 0

// inclusive: self-cleavage kobs at 640 uM GlcN6P at least 0.0002 s⁻¹? input: C8A C68A
label 0
